system-tested: Alpha-2C adrenergic receptor (Homo sapiens); further: assay procedure not described here
Sequence (P18825 whole entry): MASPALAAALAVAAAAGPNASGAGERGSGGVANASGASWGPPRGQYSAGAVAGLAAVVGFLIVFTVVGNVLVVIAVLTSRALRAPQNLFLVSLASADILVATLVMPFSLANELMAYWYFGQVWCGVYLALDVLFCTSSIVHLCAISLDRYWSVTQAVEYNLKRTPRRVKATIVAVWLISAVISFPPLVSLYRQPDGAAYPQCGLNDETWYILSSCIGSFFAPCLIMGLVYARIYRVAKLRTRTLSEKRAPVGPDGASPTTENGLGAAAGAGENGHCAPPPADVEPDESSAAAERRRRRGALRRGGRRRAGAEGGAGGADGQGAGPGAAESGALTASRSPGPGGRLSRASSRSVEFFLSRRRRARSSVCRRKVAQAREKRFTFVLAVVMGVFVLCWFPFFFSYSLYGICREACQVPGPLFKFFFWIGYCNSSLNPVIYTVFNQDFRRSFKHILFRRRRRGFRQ
Type: functional
attribute-measured: AC50

# compound, endpoint-result
records = [
    ("CN(Cc1ccc(C(C)(C)C)cc1)Cc1cccc2ccccc12 [BUTENAFINE]", "> 10 µM"),
    ("CC1=C(C(=O)O)N2C(=O)[C@@H](NC(=O)[C@H](N)C3=CCC=CC3)[C@H]2SC1 [CEPHRADINE]", "> 30 µM"),
    ("COc1cc(C(=O)NCc2ccc(OCCN(C)C)cc2)cc(OC)c1OC [TRIMETHOBENZAMIDE]", "> 30 µM"),
    ("CCn1c(=O)c2c(nc(/C=C/c3ccc(OC)c(OC)c3)n2C)n(CC)c1=O [ISTRADEFYLLINE]", "> 30 µM"),
    ("CCC[C@@]1(CCc2ccccc2)CC(O)=C([C@H](CC)c2cccc(NS(=O)(=O)c3ccc(C(F)(F)F)cn3)c2)C(=O)O1", "25 µM"),
    ("Cn1cnc2c(F)c(Nc3ccc(Br)cc3F)c(C(=O)NOCCO)cc21 [BINIMETINIB]", "> 30 µM"),
    ("CCC(NC(C)C)C(O)c1ccc(O)c(O)c1 (configuration not stated) [ISOETHARINE]", "> 30 µM"),
]

Cited source for all entries: ChEMBL document CHEMBL5291721
